MEASURED PROPERTY: melting point

> print(dat)
                                smiles.entry         result
 1  CN(C)c1nc2cc(NC(=O)c3c(C(=O)N4CC(F)C4)cnn3C)ccn2n1  243 to 244 °C
 2  CN(C)C(=O)c1cnn(C)c1C(=O)Nc1ccn2nc(N3CCOCC3)nc2c1  237 to 240 °C
 3  CN(CCF)c1nc2cc(NC(=O)c3c(C(=O)N(C)C4CC4)cnn3C)ccn2n1  148 to 151 °C
 4  COC(=O)c1cnn(C)c1C(=O)Nc1ccn2nc(-c3ccccc3)nc2c1  243 to 247 °C
 5  CN(C)C(=O)c1cnn(C)c1C(=O)Nc1ccn2nc(-c3cccc(F)c3)nc2c1  255 to 260 °C
 6  Cn1ncc(C(=O)N2CCOCC2)c1C(=O)Nc1ccn2nc(-c3cccc(F)c3)nc2c1  212 to 214 °C
 7  COCCCNC(=O)c1cnn(C)c1C(=O)Nc1ccn2nc(-c3ccccc3)nc2c1  191 to 193 °C
 8  CNC(=O)c1cnn(C)c1C(=O)Nc1ccn2nc(-c3ccccc3)nc2c1       > 250 °C
 9  CN(CCF)c1nc2cc(NC(=O)c3c(C(=O)N4CC(F)C4)cnn3C)ccn2n1  233 to 236 °C
10  CC(C)NC(=O)c1cnn(C)c1C(=O)Nc1ccn2nc(-c3ccccc3)nc2c1       > 250 °C
11  Cc1cn2nc(-c3ccccc3)nc2cc1NC(=O)c1c(C(=O)N2CCC2)cnn1C  226 to 228 °C
12  CN(C)C(=O)c1cnn(C)c1C(=O)Nc1ccn2nc(-c3ccccc3)nc2c1       > 250 °C
13  CN(CCF)c1nc2cc(NC(=O)c3c(C(=O)N4CCOCC4)cnn3C)ccn2n1  144 to 145 °C
14  Cn1ncc(C(=O)N2CCOCC2)c1C(=O)Nc1ccn2nc(-c3cccnc3)nc2c1  218 to 220 °C
15  CCN(C)c1nc2cc(NC(=O)c3c(C(=O)N4CCC4)cnn3C)ccn2n1  229 to 232 °C
16  Cn1ncc(C(=O)N2CCOCC2)c1C(=O)Nc1ccn2nc(N3CCCC3)nc2c1  194 to 197 °C
17  COC1CN(C(=O)c2cnn(C)c2C(=O)Nc2ccn3nc(-c4cccc(F)c4)nc3c2)C1  255 to 257 °C

----------
MEASURED PROPERTY: melting point

> print(dat)
                                    compound  measured.property         result
 1  Cn1ncc(C(=O)N2CCC2)c1C(=O)Nc1ccn2nc(-c3ccncc3)nc2c1      melting point       > 250 °C
 2  CC(C)c1nc2cc(NC(=O)c3c(C(=O)N4CCCC4)cnn3C)ccn2n1      melting point  141 to 143 °C
 3  CC(C)c1nc2cc(NC(=O)c3c(C(=O)N4CCC4)cnn3C)ccn2n1      melting point  226 to 227 °C
 4  CCN(C)c1nc2cc(NC(=O)c3c(C(=O)N4CCOCC4)cnn3C)ccn2n1      melting point  167 to 169 °C
 5  Cn1ncc(C(=O)N2C[C@H]3C[C@@H]2CO3)c1C(=O)Nc1ccn2nc(-c3cccnc3)nc2c1 (stereo in doubt)      melting point  272 to 273 °C
 6  CN(C)C(=O)c1cnn(C)c1C(=O)Nc1ccn2nc(-c3cccnc3F)nc2c1      melting point  249 to 251 °C
 7  Cn1ncc(C(=O)N2CCOCC2)c1C(=O)Nc1ccn2nc(N3CCOCC3)nc2c1      melting point  206 to 208 °C
 8  COc1ccccc1-c1nc2cc(NC(=O)c3c(C(=O)N4CCC4)cnn3C)ccn2n1      melting point       258.1 °C
 9  CCNC(=O)c1cnn(C)c1C(=O)Nc1ccn2nc(-c3ccccc3)nc2c1      melting point  253 to 255 °C
10  Cn1ncc(C(=O)N2CC(F)C2)c1C(=O)Nc1ccn2nc(-c3ccccc3)nc2c1      melting point  259 to 262 °C
11  CCN(C)C(=O)c1cnn(C)c1C(=O)Nc1ccn2nc(N3CCOCC3)nc2c1      melting point  201 to 203 °C
12  CN(C)c1nc2cc(NC(=O)c3c(C(=O)N4CCCC4)cnn3C)ccn2n1      melting point  199 to 201 °C
13  Cn1ncc(C(=O)N2CCOCC2)c1C(=O)Nc1cc2nc(-c3ccccc3)nn2cc1F      melting point  224 to 225 °C
14  Cc1c(NC(=O)c2c(C(=O)N3CCC3)cnn2C)ccn2nc(-c3ccccc3)nc12      melting point  243 to 245 °C
15  CN(C)c1nc2cc(NC(=O)c3c(C(=O)N4CCOCC4)cnn3C)ccn2n1      melting point  196 to 198 °C
16  Cn1ncc(C(=O)O)c1C(=O)Nc1ccn2nc(-c3ccccc3)nc2c1      melting point       > 300 °C
17  CCN(C)C(=O)c1cnn(C)c1C(=O)Nc1ccn2nc(-c3ccccc3)nc2c1      melting point  193 to 194 °C

----------
# SYSTEM NAME: UniProt Q9Y233
MEASURED PROPERTY: IC50 (nM)

> print(dat)
                                   compound  scale.unit  numeric.readout
1  COCCCNC(=O)c1cnn(C)c1C(=O)Nc1ccn2nc(-c3ccccc3)nc2c1 [Example 16]          nM             2.34
2  Cn1ncc(C(=O)N2CCC2)c1C(=O)Nc1ccn2nc(-c3cccc(OCF)c3)nc2c1 [Example 91]          nM             0.86
3  CN(CCO)C(=O)c1cnn(C)c1C(=O)Nc1ccn2nc(-c3ccccc3)nc2c1 [Example 92]          nM             0.98
4  COCCN(C)C(=O)c1cnn(C)c1C(=O)Nc1ccn2nc(-c3cccc(OCCF)c3)nc2c1 [Example 88]          nM             0.42
5  CCN(C)C(=O)c1cnn(C)c1C(=O)Nc1ccn2nc(-c3cccc(OCF)c3)nc2c1 [Example 84]          nM             0.54
6  Cn1ncc(C(=O)N2CCC2)c1C(=O)Nc1ccn2nc(-c3ccccc3OCCF)nc2c1 [Example 130]          nM             0.34
7  CN(C(=O)c1cnn(C)c1C(=O)Nc1ccn2nc(N3CCCC3)nc2c1)C1CC1 [Example 123]          nM              0.6
8  Cn1ncc(C(=O)O)c1C(=O)Nc1ccn2nc(-c3ccccc3)nc2c1 [Example 2]          nM             24.9

----------
MEASURED PROPERTY: melting point

> print(dat)
                                   molecule         result
1  Cc1cncc(-c2nc3cc(NC(=O)c4c(C(=O)N5CCC5)cnn4C)ccn3n2)c1 [Example 68]  262 to 264 °C
2  Cn1ncc(C(=O)N2CCC2)c1C(=O)Nc1ccn2nc(-c3ccccc3)nc2c1 [Example 3]  243 to 245 °C
3  Cc1ccc(CN(C)C(=O)c2cnn(C)c2C(=O)Nc2ccn3nc(-c4ccccc4)nc3c2)cn1 [Example 20]  110 to 150 °C
4  Cn1ncc(C(=O)N2CCC2)c1C(=O)Nc1ccn2nc(N3CCOCC3)nc2c1 [Example 8]  232 to 234 °C
5  Cn1ncc(C(=O)N2CCC2)c1C(=O)Nc1cc2nc(-c3ccccc3)nn2cc1F [Example 30]       > 250 °C
6  CCN(CC)C(=O)c1cnn(C)c1C(=O)Nc1ccn2nc(-c3ccccc3)nc2c1 [Example 18]  177 to 179 °C
7  Cn1ncc(C(=O)N2CCCC2)c1C(=O)Nc1ccn2nc(-c3ccccc3)nc2c1 [Example 13]  210 to 215 °C
8  Cn1ncc(C(=O)N2CCC2)c1C(=O)Nc1ccn2nc(-c3cccc(F)n3)nc2c1 [Example 119]       263.9 °C

----------
Recorded pIC50 values (human PDE10A full length (Homo sapiens)) are given below.
pIC50: −log10 of the molar value.
MEASURED PROPERTY: pIC50

> print(dat)
                                   compound  numeric.readout
1  CN(C)C(=O)c1cnn(C)c1C(=O)Nc1ccn2nc(-c3cccnc3F)nc2c1 [Example 109]             8.43
2  Cn1ncc(C(=O)NCCF)c1C(=O)Nc1ccn2nc(-c3ccccc3)nc2c1 [Example 96]             8.67
3  CN(C)C(=O)c1cnn(C)c1C(=O)Nc1ccn2nc(-c3cccc(F)c3)nc2c1 [Example 104]             8.84
4  COCCN(C)C(=O)c1cnn(C)c1C(=O)Nc1ccn2nc(-c3ccccc3OC)nc2c1 [Example 99]             9.13
